Every entry's value here was drawn from patent EP4678643A1.

Measured IC50 of individual entries
Tested on: pERK in MKN1 cells (KRAS WTdep)
Test: Inhibitory effect on intracellular pERK by In-Cell Western assay, MKN1
Assay type: cell-based
Details: Homo sapiens, MKN-1, pERK inhibition, compound incubation 3 h
Report field: quantity (unit follows the number).

Solved entries:
CC#Cc1nc(-c2cc(O)cc3ccc(F)c(CC)c23)c(F)c2nc(OCC34CCCN3CC(F)C4)nc(N3CCCOCC3)c12 (centres unmarked): 6.4 nM
C#Cc1c(F)ccc2cc(O)cc(-c3nc(C#CC)c4c(N5CCOCC(F)(F)C5)nc(OC[C@@]56CCCN5C[C@H](F)C6)nc4c3F)c12: 1.41 nM
C#Cc1c(F)ccc2cc(O)cc(-c3nc(C#CC)c4c(N5CCCCCC5)nc(OC[C@@]56CCCN5C[C@H](F)C6)nc4c3F)c12: 3.6 nM
C#Cc1c(F)ccc2cc(O)cc(-c3nc(C#CC)c4c(N5CCCOCC5)nc(OCC56CCCN5CCC6)nc4c3F)c12: 7.4 nM
C#Cc1c(F)ccc2cc(O)cc(-c3nc(C#CCC)c4c(N5CCCCC(F)C5)nc(OC[C@@]56CCCN5C[C@H](F)C6)nc4c3F)c12 (some centres unmarked): 21.5 nM

Req: What value of IC50 has been reported for the following compound? C#Cc1c(F)ccc2cc(O)cc(-c3nc(C#CC)c4c(N5CCCOCC5)nc(OCC56CCCN5CC(F)C6)nc4c3F)c12 (centres unmarked)
Resp: 1.9 nM

Req: And the next one, C#Cc1c(F)ccc2cc(O)cc(-c3nc(C#C)c4c(N5CCCOCC5)nc(OC[C@@]56CCCN5C[C@H](F)C6)nc4c3F)c12 ?
Resp: 3.3 nM

Req: And the next one, C#Cc1c(F)ccc2cc(O)cc(-c3nc(C#CC)c4c(N5CCCCC(F)(F)C5)nc(OC[C@@]56CCCN5C[C@H](F)C6)nc4c3F)c12 ?
Resp: 4.5 nM

Req: And the next one, C#Cc1c(F)ccc2cc(O)cc(-c3nc(C#CC)c4c(N5CCCCC(F)C5)nc(OC[C@@]56CCCN5C[C@H](F)C6)nc4c3F)c12 (some centres unmarked) ?
Resp: 3 nM

Req: And the next one, C#Cc1c(F)ccc2cc(O)cc(-c3nc(C#C)c4c(N5CCCOCC5)nc(OCC56CC(=C)CN5CC(=C)C6)nc4c3F)c12 ?
Resp: 1.6 nM

Req: And the next one, C#Cc1c(F)ccc2cc(O)cc(-c3nc(C#CCC)c4c(N5CCCOCC5)nc(OCC56CCCN5CC(F)C6)nc4c3F)c12 (centres unmarked) ?
Resp: 3.7 nM
